Here's a roundup of pIC50 values tested on Proto-oncogene tyrosine-protein kinase Src (Homo sapiens), taken from various published works.
pIC50: −log10 of the molar value.

Consider the following illustrative entries.
smilesinput=COc1cc(Nc2ncnc(N(C/C=C/c3ccccc3)c3ccc(Cl)cc3)n2)cc(OC)c1OC readouttype=pIC50 recordedvalue="< 5.05"
smilesinput=CCN(CC)CCOc1ccc(Nc2ncc3c(n2)N(C)C(=O)N(c2cc(NC(=O)c4ccc(C#N)cc4)ccc2Cl)C3)cc1 readouttype=pIC50 recordedvalue=9.00
smilesinput=COCCOc1ccc(Nc2ncnc(Nc3ccc(C)c(O)c3)n2)cc1OCCOC readouttype=pIC50 recordedvalue="> 6.04"
smilesinput=COc1cc(Nc2ncnc(Nc3ccc(C)c(N)c3)n2)cc(OC)c1OC readouttype=pIC50 recordedvalue="> 5.98"
smilesinput=COc1cc(Nc2ncnc(Nc3ccc(N4CCOCC4)cc3)n2)cc(OC)c1OC readouttype=pIC50 recordedvalue="5.26 to 6.04"
smilesinput=CC(C)OC(=O)Nc1cnc2[nH]c(-c3cccc([N+](=O)[O-])c3)nc2c1 readouttype=pIC50 recordedvalue=6.73

State pIC50 (Proto-oncogene tyrosine-protein kinase Src (Homo sapiens)) of O=C(Nc1cnc2[nH]c(-c3ccccc3)cc2c1)c1ccc(Cl)cc1Cl .
6.52 to 8.30

Lab note: record pIC50 of O=C(O)/C=C/c1cccc(-c2cnc3[nH]cc(C(=O)c4cc(O)ccc4F)c3c2)c1 tested on Proto-oncogene tyrosine-protein kinase Src (Homo sapiens).
≥ 5.00

# return pIC50 of COc1cccc(Cc2c[nH]c3ncc(-c4cccnc4)cc23)c1F (system: Proto-oncogene tyrosine-protein kinase Src (Homo sapiens))
≥ 5.00

Answer briefly: pIC50 recorded on Proto-oncogene tyrosine-protein kinase Src (Homo sapiens) for COc1ccc(Nc2ncnc(Nc3cccc(C)c3)n2)cc1OC
5.15 to 5.93

Provide measured pIC50 on Proto-oncogene tyrosine-protein kinase Src (Homo sapiens) for C=CC(=O)Nc1ccccc1Nc1nc(Nc2ccc(N3CCN(C)CC3)cc2)nc2ccsc12 please.
8.00 to 9.00

Jot down pIC50 (Proto-oncogene tyrosine-protein kinase Src (Homo sapiens)) of COc1c(CNC(C)=O)cc(C(C)(C)C)cc1NC(=O)Nc1ccc(Oc2ccnc(NCc3ccccn3)c2)c2ccccc12 .
6.42
